Data credit: patent US10485773B2

# Experiment description: second dissolution test in DMSO or water
# Format: physicochemical
# Test parameters: second dissolution test; 0.1 g powder; DMSO
Property: Total volume of DMSO for dissolving the p-TSA derivatives; scope: individual compounds
Measured property: Total volume of DMSO for dissolving the p-TSA derivatives (mL)

>>> test_value("Cc1ccc(S(=O)(=O)N2CC(=NNC(=O)C3CN(S(=O)(=O)c4ccc(C)cc4)C3)C2)cc1")
4.04
>>> test_value("CC(=O)NS(=O)(=O)c1ccc(C)cc1")
8
>>> test_value("Cc1ccc(S(=O)(=O)NCCF)cc1")
9.5

###

# Experiment description: first dissolution test in DMSO or water
# Test parameters: first dissolution test; amount for a 3M solution in 0.5 mL; DMSO, up to 15000 μL
Measured property: Total volume of DMSO for dissolving the p-TSA derivatives (µL)

>>> test_value("Cc1ccc(S(=O)(=O)NC[C@H](C)O)cc1")
500
>>> test_value("Cc1ccc(S(=O)(=O)NCC(F)(F)F)cc1")
590
>>> test_value("Cc1ccc(S(=O)(=O)N2CCC(CN)CC2)cc1.Cl")
2000
>>> test_value("Cc1ccc(S(=O)(=O)N2CC(=O)C2)cc1")
3000
>>> test_value("Cc1ccc(S(=O)(=O)NC(C)CO)cc1 (centres unmarked)")
560
>>> test_value("Cc1ccc(S(=O)(=O)NC2CCN(Cc3ccccc3)CC2)cc1.Cl [PTSA052i]")
4000
>>> test_value("Cc1ccc(S(=O)(=O)NC(=O)NS(=O)(=O)c2ccc(C)cc2)cc1 [PTSA018]")
2000
>>> test_value("Cc1ccc(S(=O)(=O)N[C@@H](C)C(=O)O)cc1")
2000
>>> test_value("Cc1ccc(S(=O)(=O)NCCO)cc1")
490
>>> test_value("Cc1ccc(S(=O)(=O)N2CC(CO)C2)cc1")
880
>>> test_value("Cc1ccc(S(=O)(=O)N[C@@H](C)CO)cc1")
500

###

# Tested on: human non-small-cell lung cancer cell lines H460
# Experiment description: SRB growth inhibition of lung cancer cells
# Type: cell-based
# Test parameters: Homo sapiens, NCI-H460, 48 h, derivative dissolved in water; 48 hours; SRB; read-out: IC50 of H460 in water
pIC50: −log10 of the molar value.
Property: pIC50; scope: individual compounds
Measured property: pIC50

>>> test_value("Cc1ccc(S(=O)(=O)N2CC(N)C2)cc1.Cl [PTSA074]")
2.65
>>> test_value("Cc1ccc(S(=O)(=O)N2CC(CN)C2)cc1.Cl [PTSA068]")
2.86

###

# Experiment description: first dissolution test in DMSO or water
# Test parameters: first dissolution test; amount for a 3M solution in 0.5 mL; DMSO, up to 15000 μL
Grouping rule (Total volume of DMSO for dissolving the p-TSA derivatives): range 1 = under 600 µL, range 2 = from 600 µL up to 900 µL, range 3 = 900 µL and over

>>> classification("CCOC(=O)NS(=O)(=O)c1ccc(C)cc1 [PTSA015]")
"range 2"
>>> classification("CON=C1CN(S(=O)(=O)c2ccc(C)cc2)C1")
"range 3"
>>> classification("Cc1ccc(S(=O)(=O)N2CC(C(=O)[O-])C2)cc1.[Na+]")
"range 3"
>>> classification("Cc1ccc(S(=O)(=O)N2CC3(COC3)C2)cc1")
"range 3"
>>> classification("Cc1ccc(S(=O)(=O)NCCS(=O)(=O)O)cc1")
"range 3"
>>> classification("Cc1ccc(S(=O)(=O)NCCN(C)C)cc1.Cl")
"range 3"
>>> classification("Cc1ccc(S(=O)(=O)N2CCC[C@H]2CO)cc1")
"range 1"
>>> classification("Cc1ccc(S(=O)(=O)N2CCC(O)C2)cc1 (stereo not drawn)")
"range 1"
>>> classification("Cc1ccc(S(=O)(=O)NC[C@@H](O)CO)cc1")
"range 1"
>>> classification("Cc1ccc(S(=O)(=O)N2CC(F)C2)cc1")
"range 3"
>>> classification("Cc1ccc(S(=O)(=O)NC(C)(CO)CO)cc1")
"range 2"
>>> classification("Cc1ccc(S(=O)(=O)N2CC[C@@H](O)C2)cc1")
"range 1"
>>> classification("Cc1ccc(S(=O)(=O)N2CCCC2C(=O)O)cc1 (stereo not drawn)")
"range 3"
>>> classification("COC(=O)NS(=O)(=O)c1ccc(C)cc1 [PTSA011]")
"range 1"
>>> classification("Cc1ccc(S(=O)(=O)N2CC(C(=O)NO)C2)cc1")
"range 2"
>>> classification("Cc1ccc(S(=O)(=O)NCCOCCO)cc1")
"range 1"
>>> classification("Cc1ccc(S(=O)(=O)N2CC(=NO)C2)cc1")
"range 2"
>>> classification("Cc1ccc(S(=O)(=O)N2CCCC2CO)cc1 (stereo not drawn)")
"range 1"
>>> classification("Cc1ccc(S(=O)(=O)NCC2(CO)COC2)cc1")
"range 1"
>>> classification("Cc1ccc(S(=O)(=O)N2CC(F)(F)C2)cc1")
"range 2"
>>> classification("Cc1ccc(S(=O)(=O)N2CCC(N)CC2)cc1.Cl")
"range 3"
>>> classification("Cc1ccc(S(=O)(=O)NC2COC2)cc1")
"range 1"
>>> classification("Cc1ccc(S(=O)(=O)N2CC(CN)C2)cc1.Cl")
"range 3"
>>> classification("Cc1ccc(S(=O)(=O)N2CC(C(N)=O)C2)cc1")
"range 3"
>>> classification("Cc1ccc(S(=O)(=O)NCC2CCNCC2)cc1.Cl")
"range 2"
>>> classification("Cc1ccc(S(=O)(=O)N[C@@H](CO)C(=O)O)cc1")
"range 2"
>>> classification("Cc1ccc(S(=O)(=O)NC(CO)(CO)CO)cc1")
"range 2"
>>> classification("Cc1ccc(S(=O)(=O)N2CC(N)C2)cc1.Cl")
"range 3"
>>> classification("COCCNS(=O)(=O)c1ccc(C)cc1")
"range 1"
>>> classification("Cc1ccc(S(=O)(=O)NC(=O)NS(=O)(=O)c2ccc(C)cc2)cc1 [PTSA017]")
"range 3"
>>> classification("Cc1ccc(S(=O)(=O)NCC(O)CO)cc1 (stereo not drawn)")
"range 2"
>>> classification("Cc1ccc(S(=O)(=O)NCC(C)O)cc1 (stereo not drawn)")
"range 1"
>>> classification("Cc1ccc(S(=O)(=O)NCCCO)cc1")
"range 1"
>>> classification("CC(=O)NS(=O)(=O)c1ccc(C)cc1 [PTSA001]")
"range 1"
>>> classification("Cc1ccc(S(=O)(=O)N2CC(C(=O)NN)C2)cc1")
"range 3"
>>> classification("COCCCNS(=O)(=O)c1ccc(C)cc1")
"range 1"
